Biological target: Bromodomain-containing protein 4 (Homo sapiens, UniProt O60885)
Assay: Inhibition of BRD4 BD1 (unknown origin) using FAM-labeled JQ-1 as fluorescent substrate assessed as inhibition constant incubated for 30 mins by competitive fluorescence polarization method
assayReadout: pKi
// pKi here means minus log10 of the molar concentration (mol/L)

[in] What value of pKi has been reported for the following compound? COc1cc(-c2nc(SCc3ccccc3Cl)[nH]c(=O)c2C#N)cc(O)c1OC
[out] 5.71

[in] Return reported pKi; argument: COc1ccc(-c2nc(SCc3ccccc3Cl)[nH]c(=O)c2C#N)cc1OC
[out] 5.49

[in] Looking for the measured pKi of COc1cc(-c2nc(SCc3cc(C)cc(C)c3)[nH]c(=O)c2C#N)cc(OC)c1OC , can you help?
[out] 5.83

[in] Need pKi, item COc1cc(-c2nc(SCc3ccc(C)cc3)[nH]c(=O)c2C#N)cc(OC)c1OC
[out] 5.86

[in] # lookup: pKi of COc1cc(-c2nc(SCc3cccc(C)c3C)[nH]c(=O)c2C#N)cc(OC)c1OC
[out] 5.76
